Reported IC50 values are given for each entry in this list.
# assay_target: L-lactate dehydrogenase A chain (Homo sapiens, UniProt P00338)
# experimental_protocol: Inhibition of GS[HiBiT]GS-tagged LDHA (unknown origin) expressed in HEK-293T cells measured after 1 hr by […]
# Assay type: cell-based
Enter your answer as a number in µM; do not include the unit.

State, in one line, measured IC50 of `CC#Cc1cccc(-c2nn(-c3nc(C(=O)O)cs3)c(CC3CC3)c2Cc2ccc(S(N)(=O)=O)c(F)c2)c1`
0.15

----------
# assay_target: L-lactate dehydrogenase A chain (Homo sapiens)
# experimental_protocol: Inhibition of LDHA in human MIA PaCa-2 cells assessed as decrease in lactate production incubated for 2 hrs by lactate oxidase-coupled fluorescence based assay
# Type: cell-based
# run_conditions: mia paca-2
readout_kind: IC50 (nM)
Enter your answer as a number in nM; do not include the unit.

State, in one line, measured IC50 of `Cc1nc(C#Cc2cccc(-c3nn(-c4nc(C(=O)O)cs4)c(CC4CC4)c3Cc3ccc(S(N)(=O)=O)c(F)c3)c2)cs1`
1180

----------
# assay_target: L-lactate dehydrogenase A chain (Homo sapiens, UniProt P00338)
# experimental_protocol: Inhibition of GS[HiBiT]GS-tagged LDHA (unknown origin) expressed in HEK-293T cells measured after 1 hr by […]
# Type: cell-based
Response field label takes yes (1) when IC50 is strictly below 100 nM and no (0) in all other cases.

// below: answered molecules
[
  {
    "molecule": "NS(=O)(=O)c1ccc(Cc2c(-c3ccc(F)c(C#CC4CCOC4)c3)nn(-c3nc(C(=O)O)cs3)c2CC2CC2)cc1F (centres undefined)",
    "assigned_category": "yes (1)"
  },
  {
    "molecule": "Cc1cc(C)c(C#Cc2cccc(-c3nn(-c4nc(C(=O)O)cs4)c(CC4CC4)c3Cc3ccc(S(N)(=O)=O)c(F)c3)c2)s1",
    "assigned_category": "no (0)"
  },
  {
    "molecule": "Cc1ccc(C#Cc2cccc(-c3nn(-c4nc(C(=O)O)cs4)c(CCC4CC4)c3Cc3ccc(S(N)(=O)=O)c(F)c3)c2)o1",
    "assigned_category": "yes (1)"
  }
]

For this molecule, is IC50 lower than 100 nM? `NS(=O)(=O)c1ccc(Cc2c(-c3ccc(F)c(C#Cc4cccs4)c3)nn(-c3nc(C(=O)O)cs3)c2CC2CC2)cc1F`
yes (1)

For this molecule, is IC50 lower than 100 nM? `NS(=O)(=O)c1ccc(Cc2c(-c3cccc(C#Cc4ccc(C5CC5)s4)c3)nn(-c3nc(C(=O)O)cs3)c2CC2CC2)cc1F`
no (0)

----------
Reported half-life values are given for each entry in this list.
# experimental_protocol: Metabolic stability in rat hepatocytes
# Format: ADME, cell-based, Hepatocyte

[
  {
    "compound_structure": "Cc1ccc(C#Cc2cc(-c3nn(-c4nc(C(=O)O)cs4)c(CC4CC4)c3Cc3ccc(S(N)(=O)=O)c(F)c3)ccc2F)s1",
    "experimental_result": "> 2.5 h"
  }
]

# input for lookup
State, in one line, measured half-life of `Cc1ccc(C#Cc2cccc(-c3nn(-c4nc(C(=O)O)cs4)c(CC4CC4)c3Cc3ccc(S(N)(=O)=O)c(F)c3)c2)s1`
> 2.5 h

----------
Reported IC50 values are given for each entry in this list.
# Test system: MIA PaCa-2
# experimental_protocol: Cytotoxicity against human MIA PaCa-2 cells assessed as reduction in cell viability after 48 hrs by CellTiter-Glo assay
# Assay type: functional, cell-based
# run_conditions: MIA PaCa-2, 48 h
Enter your answer as a number in nM; do not include the unit.

[
  {
    "molecule": "Cc1cnc(C#Cc2cccc(-c3nn(-c4nc(C(=O)O)cs4)c(CCC4CC4)c3Cc3ccc(S(N)(=O)=O)c(F)c3)c2)s1",
    "IC50 / nM": 173
  },
  {
    "molecule": "NS(=O)(=O)c1ccc(Cc2c(-c3cccc(C#CC4CCCC4)c3)nn(-c3nc(C(=O)O)cs3)c2CC2CC2)cc1F",
    "IC50 / nM": 377
  },
  {
    "molecule": "Cc1ccsc1C#Cc1cccc(-c2nn(-c3nc(C(=O)O)cs3)c(CC3CC3)c2Cc2ccc(S(N)(=O)=O)c(F)c2)c1",
    "IC50 / nM": 452
  },
  {
    "molecule": "Cc1ccc(/C=C/c2cccc(-c3nn(-c4nc(C(=O)O)cs4)c(CC4CC4)c3Cc3ccc(S(N)(=O)=O)c(F)c3)c2)s1",
    "IC50 / nM": 471
  },
  {
    "molecule": "Cc1ccc(C#Cc2cccc(-c3nn(-c4nc(C(=O)O)cs4)c(CC4CC4)c3Cc3ccc(S(N)(=O)=O)c(F)c3)c2)s1",
    "IC50 / nM": 347
  },
  {
    "molecule": "NS(=O)(=O)c1ccc(Cc2c(-c3cccc(-c4ccccc4)c3)nn(-c3nc(C(=O)O)cs3)c2CC2CC2(F)F)cc1 (configuration not stated)",
    "IC50 / nM": 10700
  }
]

# input for lookup
Send back MIA PaCa-2 IC50 of `NS(=O)(=O)c1ccc(Cc2c(-c3cccc(C#Cc4ccc(C5CCC5)s4)c3)nn(-c3nc(C(=O)O)cs3)c2CC2CC2)cc1F` only.
905

----------
# Species: Sus scrofa
# experimental_protocol: Inhibition of porcine heart MDH using malic acid as substrate preincubated for 10 mins followed by substrate addition and measured after 5 mins by resazurin based fluorescence based assay
# run_conditions: time 15.0 min
Activity calls are given as the source filed them. How the calls were made is not given here.
readout_kind: inhibition

[
  {
    "compound_structure": "NS(=O)(=O)c1ccc(Cc2c(-c3cccc(-c4ccccc4)c3)nn(-c3nc(C(=O)O)cs3)c2CC2CC2)cc1F",
    "readout_kind": "inhibition",
    "experimental_result": "inactive"
  },
  {
    "compound_structure": "NS(=O)(=O)c1ccc(Cc2c(-c3ccc(F)c(C#CCCO)c3)nn(-c3nc(C(=O)O)cs3)c2CC2CC2)cc1F",
    "readout_kind": "inhibition",
    "experimental_result": "inactive"
  },
  {
    "compound_structure": "Cc1ccc(C#Cc2cccc(-c3nn(-c4nc(C(=O)O)cs4)c(CC4CC4)c3Cc3ccc(S(N)(=O)=O)c(F)c3)c2)s1",
    "readout_kind": "inhibition",
    "experimental_result": "inactive"
  },
  {
    "compound_structure": "NS(=O)(=O)c1ccc(Cc2c(-c3cccc(-c4ccccc4)c3)nn(-c3nc(C(=O)O)cs3)c2CC2CC2)c(F)c1",
    "readout_kind": "inhibition",
    "experimental_result": "inactive"
  },
  {
    "compound_structure": "NS(=O)(=O)c1ccc(Cc2c(-c3cccc(C#Cc4ccc(C5CCC5)s4)c3)nn(-c3nc(C(=O)O)cs3)c2CCC2CC2)cc1F",
    "readout_kind": "inhibition",
    "experimental_result": "inactive"
  },
  {
    "compound_structure": "NS(=O)(=O)c1ccc(Cc2c(-c3cccc(C#Cc4ccc(C(F)(F)F)s4)c3)nn(-c3nc(C(=O)O)cs3)c2CC2CC2)cc1F",
    "readout_kind": "inhibition",
    "experimental_result": "inactive"
  }
]

State, in one line, measured inhibition of `Cc1cnc(C#Cc2cccc(-c3nn(-c4nc(C(=O)O)cs4)c(CC4CC4)c3Cc3ccc(S(N)(=O)=O)c(F)c3)c2)o1`
inactive

----------
# assay_target: L-lactate dehydrogenase B chain (Homo sapiens) (UniProt P07195)
# Sequence (P07195 2-334 limits assumed): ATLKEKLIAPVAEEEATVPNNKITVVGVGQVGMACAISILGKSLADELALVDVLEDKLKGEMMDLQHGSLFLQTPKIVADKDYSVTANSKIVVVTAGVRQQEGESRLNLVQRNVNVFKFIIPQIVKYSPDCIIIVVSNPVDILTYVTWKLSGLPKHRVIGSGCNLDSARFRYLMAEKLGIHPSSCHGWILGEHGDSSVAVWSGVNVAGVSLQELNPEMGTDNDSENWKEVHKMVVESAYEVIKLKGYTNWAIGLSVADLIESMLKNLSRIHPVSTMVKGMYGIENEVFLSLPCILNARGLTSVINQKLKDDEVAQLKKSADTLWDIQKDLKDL
# experimental_protocol: Inhibition of recombinant human LDHB using sodium pyruvate as substrate preincubated for 5 mins followed by diaphorase/resazurin addition and measured after 20 mins by fluorescence based assay
Active and inactive are the calls of the source. No rule for the calls is given here.
readout_kind: inhibition

Answered examples (4):
[
  {
    "compound_structure": "CC(C)(C)C#Cc1cc(-c2nn(-c3nc(C(=O)O)cs3)c(CC3CC3)c2Cc2ccc(S(N)(=O)=O)c(F)c2)ccc1F",
    "inhibition": "Active"
  },
  {
    "compound_structure": "NS(=O)(=O)c1ccc(Cc2c(-c3cccc(C#Cc4ccc(C(F)(F)F)s4)c3)nn(-c3nc(C(=O)O)cs3)c2CC2CC2)cc1F",
    "inhibition": "Active"
  },
  {
    "compound_structure": "CC#Cc1cccc(-c2nn(-c3nc(C(=O)O)cs3)c(CC3CC3)c2Cc2ccc(S(N)(=O)=O)c(F)c2)c1",
    "inhibition": "Active"
  },
  {
    "compound_structure": "Cc1ncc(C#Cc2cccc(-c3nn(-c4nc(C(=O)O)cs4)c(CCC4CC4)c3Cc3ccc(S(N)(=O)=O)c(F)c3)c2)s1",
    "inhibition": "Active"
  }
]

State, in one line, measured inhibition of `Cc1cnc(C#Cc2cccc(-c3nn(-c4nc(C(=O)O)cs4)c(CC4CC4)c3Cc3ccc(S(N)(=O)=O)c(F)c3)c2)s1`
Active

State, in one line, measured inhibition of `Cc1ncc(C#Cc2cc(-c3nn(-c4nc(C(=O)O)cs4)c(CC4CC4)c3Cc3ccc(S(N)(=O)=O)c(F)c3)ccc2F)s1`
Active

State, in one line, measured inhibition of `NS(=O)(=O)c1ccc(Cc2c(-c3ccc(F)c(C#CC(F)F)c3)nn(-c3nc(C(=O)O)cs3)c2CC2CC2)cc1F`
Active
